system: NCI-H226 lung; assay: NCI-60 one-dose screen, 48 h (100 = growth as untreated, 0 = no growth, -100 = all killed); conditions: 10 µM unless noted
The panel holds about 83,000 compounds, 20% with a hit somewhere; the sample as a whole holds those more often.
Readout type: growth (%)
Field: numeric (%). Do not append units.

Examples with their reported growth follow.
{"Molecule": "CC1(C)NCCC[C@]2(C)[C@H]3CC=C4[C@@H]5C[C@@](C)(CO)CC[C@]5(C)CC[C@@]4(C)[C@]3(C)CC[C@@H]12", "growth (%)": 83.9}
{"Molecule": "CNC(=O)NCC1OC(n2cnc3c(NC(=O)Nc4ccccc4)ncnc32)C(O[Si](C)(C)C(C)(C)C)C1O[Si](C)(C)C(C)(C)C (stereo not drawn)", "growth (%)": 49}
{"Molecule": "NC(=O)c1ccc[n+](CC(=O)N2CCN(c3cc4c(cc3F)c(=O)c(C(=O)O)cn4C3CC3)CC2)c1", "growth (%)": 97.3}

Lookup: Give the measured growth of `O=C(O)/C=C\C(=O)N1C/C(=C\c2ccccc2Cl)C(=O)/C(=C/c2ccccc2Cl)C1` .
Found: -85

Lookup: Give the measured growth of `COc1ccc(C(=O)c2cc3c(N)c(C(=O)Nc4cccc(Cl)c4)sc3nc2C)cc1` .
Found: 61.9

Lookup: Give the measured growth of `CCCOc1nc(SCCC)nc2c1cnn2-c1ccccc1` .
Found: 96.6

Lookup: Give the measured growth of `CN(C)C(=O)c1cc2cnc(Nc3ccc(-c4csc5c(=O)cc(N6CCOCC6)oc45)cc3)nc2n1C1CCCC1` .
Found: 2.17

Lookup: Give the measured growth of CC(O)/C=C/C=C/C(O)CC/C=C/C(=O)NCC(C)(C)O (stereo not drawn) .
Found: 108

---

Catalogue of growth readings, one per entry.
system: RPMI-8226 leukemia; assay: NCI-60 one-dose screen, 48 h (100 = growth as untreated, 0 = no growth, -100 = all killed); conditions: 10 µM unless noted
The panel holds about 83,000 compounds, 20% with a hit somewhere; the sample as a whole holds those more often.
Field: numeric (%). Do not append units.

Examples with their reported growth follow.
{"Molecule": "COc1cc(OC)c(/C=C/C(=O)c2ccc(Nc3ncnc4ccccc34)cc2)c(OC)c1", "Unit abbrev": "%", "Value reported": 12.2}
{"Molecule": "c1ccc(-c2nn(-c3ccccc3)[n+](-c3ccccc3-c3ccccc3)n2)cc1", "Unit abbrev": "%", "Value reported": 15.3}
{"Molecule": "O=C(NNc1nc(Cl)nc(N2CCN(C(c3ccccc3)c3ccccc3)CC2)n1)c1ccccc1", "Unit abbrev": "%", "Value reported": 57.8}
{"Molecule": "CCCCCCCCOc1ccc(/C=N/Nc2cc(C)nc3ccc(Cl)cc23)cc1", "Unit abbrev": "%", "Value reported": -3.13}
{"Molecule": "COc1cc2nc(-c3ccc(C(F)(F)F)cc3)cc(OCCCN3CCC(O)CC3)c2cc1OC", "Unit abbrev": "%", "Value reported": 9.93}

Lookup: Give the measured growth of `O=C1Nc2ccccc2/C1=N/c1nc(-c2ccc(Cl)cc2)cs1` .
Found: 39.3

Lookup: Give the measured growth of `C=C(C)[C@@H]1CC[C@]2(C(=O)O)CC[C@]3(C)[C@H](CC[C@@H]4[C@@]5(C)C[C@@H](CC#Cc6ccc(Br)cc6)C(=O)C(C)(C)[C@@H]5CC[C@]43C)[C@@H]12` .
Found: 33.4
